The reported numbers originate from PubChem BioAssay AID1508612.

- experimentalProtocol: passive permeability, PAMPA, ADME assay (AID 1508612)
- measurementSetup: pH 7.4, 30.0 min, 50.0 µM
Record form. Attribute: Papp. Fill in for each entry.
Numbers only, in ×10⁻⁶ cm/s.

Reference set (5 entries):
C=Cc1ccc(Cn2c(C(=O)O)c(CNC3CCCCC3)c3ccc(OC)cc32)cc1: 771
Cn1c(=O)c2[nH]c(=O)[nH]c2n(C)c1=O: 1.71
COc1ccc(NC(=O)c2c(C)cccc2C)cc1[S+](=O)([O-])N1CCCCC1: 548
COc1cccc(CNc2ccc(S(=O)(=O)Nc3nc(C)c(C)s3)cc2)c1O: 25.8
Fc1ccc(Nc2nc(-c3ccncc3Cl)nc3ccccc23)cc1F: 72.2

I have 3 compounds here; please give me Papp for each one.
1. Cc1cccc(C(=O)Nc2ccc(N3CCC(N4CCCCC4)CC3)c(C(=O)O)c2)c1
2. O=C(c1ccc2c(c1)ncn2-c1ccccc1)N1CCCCC1
3. C[C@@]1(c2ncncc2F)NC(=O)c2cc(-c3cn[nH]c3)ccc21

[5.2, 472, 52.1]
